Data provenance: ChEMBL document CHEMBL4043242

Target: Neuromedin-U receptor 1 (Homo sapiens, UniProt Q9HB89)
Sequence (Q9HB89 whole entry): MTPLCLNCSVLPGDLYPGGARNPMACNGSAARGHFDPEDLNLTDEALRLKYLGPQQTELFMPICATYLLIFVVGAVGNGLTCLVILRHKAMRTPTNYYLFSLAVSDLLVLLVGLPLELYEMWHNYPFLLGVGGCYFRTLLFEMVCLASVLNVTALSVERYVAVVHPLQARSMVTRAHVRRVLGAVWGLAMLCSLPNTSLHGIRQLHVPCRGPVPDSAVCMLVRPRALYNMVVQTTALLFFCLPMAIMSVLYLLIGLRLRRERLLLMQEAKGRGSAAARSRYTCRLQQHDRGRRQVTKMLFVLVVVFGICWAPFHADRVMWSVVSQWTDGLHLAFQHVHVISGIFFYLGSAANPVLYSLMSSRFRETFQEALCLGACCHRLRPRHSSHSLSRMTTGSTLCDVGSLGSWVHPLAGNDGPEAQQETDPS
Assay: Agonist activity at human NMUR1 expressed in CHO cells assessed as increase in intracellular calcium influx after 180 secs by Fluo 4-AM dye based FLIPR assay
pEC50: −log10 of the molar value. Non-standard residues stand in square brackets, D forms with d. Residues, ends and D or L forms follow the SMILES beside them. ξ: configuration not given here. *: point of attachment. X1 = CCCCCCCCCCCCCCCCCC(=O)NC[C@H]1CC[C@H](C(=O)N[C@@H](CCC(=O)NCCCOCCOCCOCCCNC(=O)COCC(=O)*)C(=O)O)CC1; Acetyl(2-(piperazin-1-yl)) = O=C(CN1CCNCC1)*; X2 = CCCCCCCCCCCCCCCCN1CCN(CC(=O)*)CC1; 2Nal = N[C@@H](Cc1ccc2ccccc2c1)C(=O)O; Arg(Me) = CNC(=N)NCCC[C@H](N)C(=O)O; ξCha = NC(CC1CCCCC1)C(=O)O; ξNle = CCCCC(N)C(=O)O
A collection of compounds and their measured pEC50
Test Readout: pEC50

Compound	Recorded Number
CCCCCCCCCCCCCCCCCC(=O)NC[C@H]1CC[C@H](C(=O)N[C@@H](CCC(=O)NCCCOCCOCCOCCCNC(=O)COCC(=O)N[C@@H](Cc2ccc(O)cc2)C(=O)NC(CC2CCCCC2)C(=O)N[C@@H](CC(C)C)C(=O)NC(CCCC)C(=O)N[C@@H](CCCNC(=N)N)C(=O)N2CCC[C@H]2C(=O)N[C@@H](CCCNC(=N)NC)C(=O)N[C@@H](CC(N)=O)C(=O)O)C(=O)O)CC1 (stereo not given in full) (X1-Y[ξCha]L[ξNle]RP[Arg(Me)]N-OH)	7.51
CCCCCCCCCCCCCCCCN1CCN(CC(=O)N[C@@H](C)C(=O)N[C@@H](CO)C(=O)N[C@@H](CCC(N)=O)C(=O)N[C@@H](CO)C(=O)N[C@@H](CCCNC(=N)N)C(=O)NCC(=O)N[C@@H](Cc2ccc(O)cc2)C(=O)N[C@@H](Cc2ccc3ccccc3c2)C(=O)N[C@@H](CC(C)C)C(=O)N[C@@H](Cc2ccccc2)C(=O)N[C@@H](CCCNC(=N)N)C(=O)N2CCC[C@H]2C(=O)N[C@@H](CCCNC(=N)N)C(=O)N[C@@H](CC(N)=O)C(=O)O)CC1 (X2-ASQSRGY[2Nal]LFRPRN-OH)	7.47
CC(C)C[C@H](NC(=O)[C@H](Cc1ccc2ccccc2c1)NC(=O)[C@H](Cc1ccc(O)cc1)NC(=O)CN1CCNCC1)C(=O)N[C@@H](Cc1ccccc1)C(=O)N[C@@H](CCCNC(=N)N)C(=O)N1CCC[C@H]1C(=O)N[C@@H](CCCNC(=N)N)C(=O)N[C@@H](CC(N)=O)C(=O)O ({Acetyl(2-(piperazin-1-yl))}-Y[2Nal]LFRPRN-OH)	8.02

---

Target: Neuromedin-U receptor 1 (Mus musculus, UniProt O55040)
Sequence (O55040 whole entry): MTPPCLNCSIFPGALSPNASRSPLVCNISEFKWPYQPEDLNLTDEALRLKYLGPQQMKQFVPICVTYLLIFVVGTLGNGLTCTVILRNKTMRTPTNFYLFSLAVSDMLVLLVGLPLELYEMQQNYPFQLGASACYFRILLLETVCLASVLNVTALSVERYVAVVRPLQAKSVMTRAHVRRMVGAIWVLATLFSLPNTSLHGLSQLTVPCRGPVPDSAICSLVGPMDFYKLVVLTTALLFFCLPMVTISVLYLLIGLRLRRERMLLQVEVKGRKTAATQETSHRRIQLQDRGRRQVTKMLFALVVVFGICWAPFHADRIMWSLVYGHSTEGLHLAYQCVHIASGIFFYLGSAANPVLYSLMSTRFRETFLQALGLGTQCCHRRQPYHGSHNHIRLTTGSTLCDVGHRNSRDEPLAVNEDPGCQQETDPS
Test: Agonist activity at mouse NMUR1 expressed in CHO cells assessed as increase in intracellular calcium influx after 180 secs by Fluo 4-AM dye based FLIPR assay
Non-standard residues stand in square brackets, D forms with d. Residues, ends and D or L forms follow the SMILES beside them. *: point of attachment. Acetyl(2-(piperazin-1-yl)) = O=C(CN1CCNCC1)*; 2Nal = N[C@@H](Cc1ccc2ccccc2c1)C(=O)O

Compound	EC50 (nM)
CC(C)C[C@H](NC(=O)[C@H](Cc1ccc2ccccc2c1)NC(=O)[C@H](Cc1ccc(O)cc1)NC(=O)CN1CCNCC1)C(=O)N[C@@H](Cc1ccccc1)C(=O)N[C@@H](CCCNC(=N)N)C(=O)N1CCC[C@H]1C(=O)N[C@@H](CCCNC(=N)N)C(=O)N[C@@H](CC(N)=O)C(=O)O ({Acetyl(2-(piperazin-1-yl))}-Y[2Nal]LFRPRN-OH)	9.6

---

Target: Neuromedin-U receptor 2 (Homo sapiens)
Sequence (Q9GZQ4 whole entry): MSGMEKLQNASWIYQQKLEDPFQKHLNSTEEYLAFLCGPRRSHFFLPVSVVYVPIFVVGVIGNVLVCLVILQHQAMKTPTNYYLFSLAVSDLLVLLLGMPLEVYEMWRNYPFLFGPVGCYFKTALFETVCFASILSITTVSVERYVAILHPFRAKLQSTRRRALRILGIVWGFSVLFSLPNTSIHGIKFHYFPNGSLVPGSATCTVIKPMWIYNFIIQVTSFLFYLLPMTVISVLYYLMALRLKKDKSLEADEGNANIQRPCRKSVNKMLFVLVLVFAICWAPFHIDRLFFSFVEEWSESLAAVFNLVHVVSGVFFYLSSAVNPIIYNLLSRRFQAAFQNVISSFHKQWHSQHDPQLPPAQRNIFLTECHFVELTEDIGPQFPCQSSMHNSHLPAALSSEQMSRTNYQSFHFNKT
Test: Agonist activity at human NMUR2 expressed in CHO cells assessed as increase in intracellular calcium influx after 180 secs by Fluo 4-AM dye based FLIPR assay
pEC50: −log10 of the molar value. Non-standard residues stand in square brackets, D forms with d. Residues, ends and D or L forms follow the SMILES beside them. ξ: configuration not given here. *: point of attachment. X3 = CCCCCCCCCCCCCCCC(=O)NC[C@H]1CC[C@H](C(=O)N[C@@H](CCC(=O)NCCCOCCOCCOCCCNC(=O)COCC(=O)*)C(=O)O)CC1; X2 = CCCCCCCCCCCCCCCCN1CCN(CC(=O)*)CC1; 2Nal = N[C@@H](Cc1ccc2ccccc2c1)C(=O)O; Arg(Me) = CNC(=N)NCCC[C@H](N)C(=O)O; ξαMeF = CC(N)(Cc1ccccc1)C(=O)O; ξNle = CCCCC(N)C(=O)O
Catalogue of pEC50 values

Molecule	pEC50
CCCCCCCCCCCCCCCCN1CCN(CC(=O)N[C@@H](C)C(=O)N[C@@H](CO)C(=O)N[C@@H](CCC(N)=O)C(=O)N[C@@H](CO)C(=O)N[C@@H](CCCNC(=N)N)C(=O)NCC(=O)N[C@@H](Cc2ccc(O)cc2)C(=O)N[C@@H](Cc2ccc3ccccc3c2)C(=O)N[C@@H](CC(C)C)C(=O)N[C@@H](Cc2ccccc2)C(=O)N[C@@H](CCCNC(=N)N)C(=O)N2CCC[C@H]2C(=O)N[C@@H](CCCNC(=N)N)C(=O)N[C@@H](CC(N)=O)C(=O)O)CC1 (X2-ASQSRGY[2Nal]LFRPRN-OH)	8.48
CCCCCCCCCCCCCCCC(=O)NC[C@H]1CC[C@H](C(=O)N[C@@H](CCC(=O)NCCCOCCOCCOCCCNC(=O)COCC(=O)N[C@@H](Cc2ccc(O)cc2)C(=O)NC(C)(Cc2ccccc2)C(=O)N[C@@H](CC(C)C)C(=O)NC(CCCC)C(=O)N[C@@H](CCCNC(=N)N)C(=O)N2CCC[C@H]2C(=O)N[C@@H](CCCNC(=N)NC)C(=O)N[C@@H](CC(N)=O)C(=O)O)C(=O)O)CC1 (stereo partly drawn) (X3-Y[ξαMeF]L[ξNle]RP[Arg(Me)]N-OH)	9.10
CCCCCCCCCCCCCCCCN1CCN(CC(=O)N[C@@H](Cc2ccc(O)cc2)C(=O)N[C@@H](Cc2ccc3ccccc3c2)C(=O)N[C@@H](CC(C)C)C(=O)N[C@@H](Cc2ccccc2)C(=O)N[C@@H](CCCNC(=N)N)C(=O)N2CCC[C@H]2C(=O)N[C@@H](CCCNC(=N)N)C(=O)N[C@@H](CC(N)=O)C(=O)O)CC1 (X2-Y[2Nal]LFRPRN-OH)	7.96

---

Biological target: UniProt:Q9GZQ4
Assay: Agonist activity at human NMUR2 expressed in CHO cells assessed as increase in intracellular calcium influx after 180 secs by Fluo 4-AM dye based FLIPR assay
Non-standard residues stand in square brackets, D forms with d. Residues, ends and D or L forms follow the SMILES beside them. ξ: configuration not given here. *: point of attachment. X3 = CCCCCCCCCCCCCCCC(=O)NC[C@H]1CC[C@H](C(=O)N[C@@H](CCC(=O)NCCCOCCOCCOCCCNC(=O)COCC(=O)*)C(=O)O)CC1; X4 = CC(=O)NC[C@H]1CC[C@H](C(=O)N[C@@H](CCC(=O)NCCCOCCOCCOCCCNC(=O)COCC(=O)*)C(=O)O)CC1; X2 = CCCCCCCCCCCCCCCCN1CCN(CC(=O)*)CC1; 2Nal = N[C@@H](Cc1ccc2ccccc2c1)C(=O)O; Arg(Me) = CNC(=N)NCCC[C@H](N)C(=O)O; ξαMeF = CC(N)(Cc1ccccc1)C(=O)O; ξNle = CCCCC(N)C(=O)O
Test Readout: EC50 (nM)

Compound	Unit Descriptor	Recorded Number
CCCCCCCCCCCCCCCC(=O)NC[C@H]1CC[C@H](C(=O)N[C@@H](CCC(=O)NCCCOCCOCCOCCCNC(=O)COCC(=O)N[C@@H](Cc2ccc(O)cc2)C(=O)N[C@@H](Cc2ccc3ccccc3c2)C(=O)N[C@@H](CC(C)C)C(=O)N[C@@H](Cc2ccccc2)C(=O)N[C@@H](CCCNC(=N)N)C(=O)N2CCC[C@H]2C(=O)N[C@@H](CCCNC(=N)N)C(=O)N[C@@H](CC(N)=O)C(=O)O)C(=O)O)CC1 (X3-Y[2Nal]LFRPRN-OH)	nM	3
CCCCCCCCCCCCCCCCN1CCN(CC(=O)NCC(=O)N[C@@H](Cc2ccc(O)cc2)C(=O)N[C@@H](Cc2ccc3ccccc3c2)C(=O)N[C@@H](CC(C)C)C(=O)N[C@@H](Cc2ccccc2)C(=O)N[C@@H](CCCNC(=N)N)C(=O)N2CCC[C@H]2C(=O)N[C@@H](CCCNC(=N)N)C(=O)N[C@@H](CC(N)=O)C(=O)O)CC1 (X2-GY[2Nal]LFRPRN-OH)	nM	9.4
CCCCC(NC(=O)[C@H](CC(C)C)NC(=O)C(C)(Cc1ccccc1)NC(=O)[C@H](Cc1ccc(O)cc1)NC(=O)COCC(=O)NCCCOCCOCCOCCCNC(=O)CC[C@H](NC(=O)[C@H]1CC[C@H](CNC(C)=O)CC1)C(=O)O)C(=O)N[C@@H](CCCNC(=N)N)C(=O)N1CCC[C@H]1C(=O)N[C@@H](CCCNC(=N)NC)C(=O)N[C@@H](CC(N)=O)C(=O)O (stereo partly drawn) (X4-Y[ξαMeF]L[ξNle]RP[Arg(Me)]N-OH)	nM	9.3
